B1: NELF-E aptamer (parent)
chain: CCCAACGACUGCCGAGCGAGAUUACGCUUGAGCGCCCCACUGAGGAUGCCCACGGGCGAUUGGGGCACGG

Variants of: B1
run.description: HiTS-RAP
study.conditions: with NELF-E (Drosophila)
Recorded Kd, one value per entry.
Numeric only. Scale: nM

>>> observed_value("U10G C38U")
9.49
>>> observed_value("A5U U10C")
4.96
>>> observed_value("U22A U23G")
5.34
>>> observed_value("A4G G48U")
8.36
>>> observed_value("G32A")
4.35

Attention now turns to another entry.
Query :: Field request: Kd | item: U29G A67U
Result :: 6.79

Reference for the values: the RNAGym collection of RNA variant scans (doi:10.1038/nmeth.2970)
